B1: mRNA-splicing (parent)
chain: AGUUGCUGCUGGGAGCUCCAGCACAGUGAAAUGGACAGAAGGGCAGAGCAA

- Variants of: B1
- test: exon inclusion enrichment index; higher = more inclusion; WT1 exon 5 minigene, HEK293
Listed below: exon inclusion enrichment index values for each entry.
Output: the number by itself.

INSERT INTO assay_data (mutant, observed_measurement) VALUES
  ('C44A A45C', 0.767),
  ('G5U G8U C9U G41C G42C', 0.753),
  ('G5U G8U C9U A30U', 0.0559),
  ('G5U U7C G8A C9U', 0.504),
  ('G5A C6U U7A G8U C9A G42A G43A', 1.16),
  ('G5A C6U U7A G8U C9A G41C G42C', 0.417);

Entry under review: G5C C6A U7C G8A U10A G33A G34U . Reported exon inclusion enrichment index? 0.00646

Then G5U G8U C9U G41C ? 0.706

Then G5A C6U U7A G8U C9A A37G ? 0.17
